# Test Target: human norepinephrine transporter (Homo sapiens)
# Construct: host or cells: HEK-293
# Sequence (P23975 whole entry): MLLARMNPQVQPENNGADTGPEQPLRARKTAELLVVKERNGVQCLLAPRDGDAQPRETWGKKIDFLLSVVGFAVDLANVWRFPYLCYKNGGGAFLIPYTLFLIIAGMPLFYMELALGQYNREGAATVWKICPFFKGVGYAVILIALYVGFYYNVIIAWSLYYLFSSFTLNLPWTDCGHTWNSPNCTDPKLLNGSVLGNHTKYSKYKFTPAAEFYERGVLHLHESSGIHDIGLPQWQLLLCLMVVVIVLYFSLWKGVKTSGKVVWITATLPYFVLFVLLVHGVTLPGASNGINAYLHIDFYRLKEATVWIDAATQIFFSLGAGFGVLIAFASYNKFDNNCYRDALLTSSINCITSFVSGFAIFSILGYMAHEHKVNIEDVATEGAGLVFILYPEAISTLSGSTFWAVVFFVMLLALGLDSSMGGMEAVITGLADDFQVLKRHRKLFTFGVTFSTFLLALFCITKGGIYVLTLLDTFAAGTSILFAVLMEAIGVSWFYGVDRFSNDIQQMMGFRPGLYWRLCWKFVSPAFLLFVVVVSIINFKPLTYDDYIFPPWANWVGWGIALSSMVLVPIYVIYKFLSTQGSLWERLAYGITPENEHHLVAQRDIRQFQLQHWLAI
# Assay Summary: hNET receptor binding ([125I]-RTI-55 radioligand binding)
# Settings: membranes of HEK-293 cells transfected with human norepinephrine transporter, IC50 converted to Ki by Cheng-Prusoff, read-out: hNET (Ki)
pKi: −log10 of the molar value.
Measured Endpoint: pKi

# count of solved cases: 5
Compound	pKi
FC(F)(F)Oc1ccccc1O[C@@H](c1ccccn1)[C@@H]1CNCCO1 [Example 129]	8.10
CCOc1ccccc1O[C@@H](C1CCCCC1)[C@@H]1CNCCO1 [Example 51]	7.80
Fc1ccc(C2CC2)c(O[C@@H](c2ccccn2)[C@@H]2CNCCO2)c1 [Example 164]	7.89
c1ccc([C@H](Oc2cccnc2)[C@@H]2CNCCO2)cc1 [Example 40]	6.50
Fc1ccc([C@H](Oc2ccccc2Br)[C@H]2CNCCO2)cc1 [Example 47]	8.08

I: CCOc1ccccc1OC(c1ncco1)[C@@H]1CNCCO1 (mixture of isomers) [Example 195]
II: CS(=O)(=O)c1ccccc1O[C@@H](c1ccccc1)[C@@H]1CNCCO1 [Example 54]
III: CCc1ncccc1O[C@@H](c1ccccc1)[C@@H]1CNCCO1 [Example 124]
Problem: Order these by pKi, descending, and give the full ranking. List the labels in the requested order.
Result: I, III, II
(I: 8.00, III: 7.52, II: 5.88)

A: Fc1cccc(F)c1OC(Cc1ccccc1)[C@@H]1CNCCO1 (mixture of isomers) [Example 101]
B: CCOc1cccc(F)c1OC(c1ccccc1)[C@@H]1CNCCO1 (stereo partly shown) [Example 157]
Problem: Determine, for A and B , which has the greater value of pKi. Respond with the label that goes with your answer.
Result: B

A: CC(C)Cc1cc(F)ccc1O[C@@H](c1ccccc1)[C@@H]1CNCCO1 [Example 59]
B: Fc1cc(F)c(O[C@@H](c2ccccc2)[C@@H]2CNCCO2)c(C2CC2)c1 [Example 122]
C: Fc1ccc(-c2ncccc2O[C@@H](c2ccccc2)[C@@H]2CNCCO2)cc1 [Example 33]
D: CCOc1ncccc1O[C@@H](C)[C@@H]1CNCCO1 [Example 144]
E: c1ccc([C@H](Oc2cccnc2OCC2CC2)[C@@H]2CNCCO2)cc1 [Example 192]
Problem: Could you please order the items by pKi, going from the lowest number to the highest? List the labels in the requested order.
Result: D, A, E, C, B

All figures here come from patent US7659394B2.
